Provide the recorded OD (solid phase ELISA) for the entries that follow.
- Assayed System: T1, proTGF-α-hFc (human, UniProt P01135 24-89)
- T1 construct: not shown: Fc portion of human immunoglobulin G1, fused on the C-terminal side
- Method: solid phase ELISA, proTGFα-hFc on plate
One number for each entry, in OD.

Sample records with OD (solid phase ELISA):
[[record]]
binder = "MBL184-6 (antibody, mouse IgG1, V domains shown) VH: EVQLQQSGAELVRPGASVKLSCTVSGFNIKDDYMHWVKQRPEQGLEWIGRIDPANGHTKYAPKFQDKATITADTSSNTAYLQFSSLTSEDTAVYYCTRMGLRRGYWGQGTTLTVSS VL: IQMTQSSSSLSVSLGDRVTITCKASEHINSWLAWYQQKPGNAPRLLISGATNLKTGVPSRFSGSASGKDYTLNITSLQTEDVATYYCQQYWGTPWTFGGGTKLEIK"
measure = "OD (solid phase ELISA)"
val = 1.4

[[record]]
binder = "MBL016-8 (antibody, mouse IgG2a, V domains shown) VH: VQLQQSGAELVRPGASVKLSCTASGFNIKDDYMYWVKQRPEQGLEWIGRIDPANGNTKYAPKFQDKATITADTSSNTAYLHLSSLTSEDTAVFYCAYRRAYWGQGTLVTVSA VL: DIQMTQSPSSLSASLGGKVTITCKASQDINKYIAWYQHKPGKGPRLFIHYTSKLQPGIPSRFSGSGSGRDYSFSISNLEPEDIATYYCLQYDNLLYTFGGGTKLEIK"
measure = "OD (solid phase ELISA)"
val = 1.37


Query (binder): MBL009-15 (antibody, mouse IgG1, V domains shown) VH: VQLQESGPGLVKPSQSLSLTCTVTGYSITSDYAWNWIRQFPGNKLEWMGYISYSGSTSYNPSLKSRISITRDTSKNQFFLQLNSVTTEDTATYYCARGGITRFAYWGQGTLVTVSA VL: DIQMTQTTSSLSASLGDRLTISCRASQDIRNYLNWYQQKPDGTVKLLIYYTSRLHSGVPSRFSGSGSGTDYSLTISNLEQEDIATYFCQQGNTLPWTFGGGTKLEIK ; field requested: OD (solid phase ELISA)
1.51
